Molecular target: T1, Fusion protein of LAG-3 extracellular region and mIgG2a Fc (human)
T1 construct: Limits of the signal peptide are marked only by lost underlining; also called LAG-3-mFc; LAG-3-mFc fusion protein
T1 chain: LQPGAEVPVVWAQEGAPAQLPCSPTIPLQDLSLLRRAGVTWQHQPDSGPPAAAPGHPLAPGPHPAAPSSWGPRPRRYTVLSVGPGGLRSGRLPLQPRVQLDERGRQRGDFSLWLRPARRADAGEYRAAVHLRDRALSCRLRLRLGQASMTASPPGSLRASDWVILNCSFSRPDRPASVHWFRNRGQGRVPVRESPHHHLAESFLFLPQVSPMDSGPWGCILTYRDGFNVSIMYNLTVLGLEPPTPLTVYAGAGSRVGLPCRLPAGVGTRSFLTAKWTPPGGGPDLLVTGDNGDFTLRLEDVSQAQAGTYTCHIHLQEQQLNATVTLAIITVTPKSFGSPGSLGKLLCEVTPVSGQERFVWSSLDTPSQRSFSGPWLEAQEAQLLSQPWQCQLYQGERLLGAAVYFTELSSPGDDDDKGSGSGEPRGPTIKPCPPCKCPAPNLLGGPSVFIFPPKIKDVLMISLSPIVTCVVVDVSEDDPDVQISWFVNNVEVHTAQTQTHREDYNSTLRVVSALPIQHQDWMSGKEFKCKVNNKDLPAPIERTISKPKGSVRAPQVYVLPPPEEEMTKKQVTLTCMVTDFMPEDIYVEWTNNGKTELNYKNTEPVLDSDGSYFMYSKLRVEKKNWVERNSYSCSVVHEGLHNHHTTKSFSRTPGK
Assay: ELISA, LAG-3-mFc captured by anti-mouse Fc on plate (which fusion: inferred)
Give pEC50 for every item shown.
Lab note: report pEC50 as minus log10 of the concentration in molar units, number only.

Indicate its recorded pEC50; the binder in question is Hu303-018 (antibody, human IgG4 S228P, kappa, V domains shown, Humanized mAb303) VH: QVQLVQSGAEVKKPGASVKVSCKASGYTLTDYYMNWVRQAPGQRLEWMGVINPYNGDTAYNQKFKGRVTITVDKSASTAYMELSSLRSEDTAVYYCTRDDGYYDYYFDVWGQGTTVTVSS VL: DIQMTQSPSSLSASVGDRVTLTCRASQDIGSRLNWLQQKPGGAFKRLIYATSTLDSGVPKRFSGSRSGTDFTLTISSLQPEDFADYYCLQLASSPPTFGGGTKVEIKR
9.61

Indicate its recorded pEC50; the binder in question is Hu303-008 (antibody, human IgG4 S228P, kappa, V domains shown, Humanized mAb303) VH: QVQLVQSGAEVKKPGASVKVSCKASGYTFTDYYMNWVRQAPGQRLEWMGVINPYNGDTAYNQKFKGRVTITRDTSASTAYMELSSLRSEDTAVYYCARDDGYYDYYFDVWGQGTTVTVSS VL: DIQMTQSPSSLSASVGDRVTLTCRASQDIGSRLNWLQQKPGGAFKRLIYATSTLDSGVPKRFSGSRSGTDFTLTISSLQPEDFADYYCLQLASSPPTFGGGTKVEIKR
9.85
